- experimentalDetails: soluble on expression in E. coli; label from the status in PepcDB or PDB records
quantity: soluble on expression in E. coli

The following sequences have reported results that may help.
MAHHHHHHMTPAGAGEIFLRHNPYRSEVISWYRKFLKASFSVPWETDEDALYVLEEARRLFRKNARINDIETIERKLREAEMRYEIGVHYRIPYPRAFHKTQGSLQESGVAYAADLDSMYDHPVSPRIGWIMEGSVNGGTMGGSEHLTQYLEDGPGVENDNLSEGR : not soluble
MADANATICYLNGLSLHTINEVEKILLALPKKGDRCEVQVTKPLNGTIGRSTGDVIASKSMQIHDEPRPLSLSPPLQKSEKSSKSKKLSEYSCMSSTKEQMETVEIRNGSNASAAKKLQCKVLTDQVRVSPIVSCNGVILELDVEVTIPDREEKKKLKLEIECPDFVPARIKIGNKWKKIV : not soluble
MGSDKIHHHHHHMDLKKWQDPLMNSELQQNYNDNLVKLAGSLEKANQDMTHVNQRISNLVIKSGGNESNEVVDARVSSLVPETEFTTLNDRINYAENALITGVGKLSTNVFDLMDKYNDIDTILKRLYGLDSSNIEIFVDDARGDDIAGTGEIDAPFKTINKAVMTLPRVLNSNSVNIWIVPGRYNEDVVIPPIMGGDIYIRSTNFETVDPTSSTGCQVRSISATGSNGYLYIAGLEETNTAGTTKNYFIKATRCGFVRITKCRMAFNTKAIDPFTAVFIDACSADVNGCYFASQNVDVRGYNTARVEVQNIVHGAKSAIGLYPQSADIFNLNSGTWEADTPTKLSGGGVVRT : not soluble
MQKELINEIIGEVKPKAIALFGSQAKGKAGKFSDYDLLIITKDEESRNKAEKFEKGKVEIHALTMRTALELIHKGDPFFTQIVKECKPIYGEFYIKFLREVAENVGKSKVVA : not soluble
MIDSRLLAWAYLSKVVEGPNAHLQKLLKEGHDVERIAFGIKHREEWIGEGLLKNTDSRYSIDTAQTDLETIAKLGGRLITPEDDEWPMEELDHAFGFAASGMSDHVRTYQDDALPPHALWIRGGNLRTLSAQSVTLVGTRAISQYGTEVTREFTQNLVSHQWTIISGGALGVDSVAHSEAVRAQGSTIAIAACGLDRSYPSHNRDLFNQIAKSGKGALVSEYPPGTPPQRHRFLTRNRLVAALSQGTVVVEAAWRSGALNTLSWCAGLGRIAMAVPGPVNTAGSLGCHERIRNGSAQMVTSADDVRSLLGAVGAMDSQTQYELNFAATPVQGLTRNELRVFDALDDRGEGREAASIATEAGLTLQLTIFLLIALNKRGIVKRDGTAWSRNAEMP : not soluble
MGSDKIHHHHHHLKAAIVTHLDQAPIYGDFPAPKPAPKQVLITVLASSVNQRVRSQADGSHYTKTPELPFIPGLDGVGRTSDGQLVYFLTRDPKFGALAEQTVTQQQLMFPLPEDADPAQIAASVNPAMAGWMALRVKAGQVVGKRVLVLGATGAAGTAAVQIAKTMGAAHVAGVGRNPDKLAALSDLGADTTVQLGDTAALAALPPADIVLDFLWGAPSATVMMTLLKARRDHAAKLIWIEIGGAAGPTLSLPAAALRSTGLTLVGSGQGSLTLADYQRELPALFTALTAGKFVTPTTVLSLSQVHDHWQDRGAARLVFQP : not soluble
MSEYNPCLDCGACCGYFRVSFFWGECQSAGGVVPDDLVVQINPTRVAMIGTDAKPCRCVSLQGEIGKEVACTIYANRSSPCREFDASWEGGVHNPSCDDARAAYGLPPLTPPEANEPHWPDDGAEVALEHHHHHH : soluble
MSVPPGSIIVSDWHRCPDSREFFSKILHKKRRRKFGKTGVGKSALAARLAGLDLPKMHYETTGIETTVVFWPVRLKESGRVLFFRFELWDCGESAMRRFDHMLLSCKEKVDAILFLFSFTDRGSFDDLTNQISRITEPSDRVVKLVVGTKRDGERRDTFSGGVGSSGFPCGR : not soluble

Kindly review the next sequence as well.
Ask: Find the recorded soluble on expression in E. coli belonging to MAKIVILFDFDRTLIDGDSDNWVVTEMGLTEIFHQLRFTLPWNRLMDRMMMELQSQGRSIDDIKSCLKKMPIDSHIIEAIKSAKSSGCDLKIVSDANQFFIEKILEHHDLVDCFSEIYTNPTSLDDNGNLRILPYHSDALPPHSCNLCPSNLCKGLVMDHLRASSSNDQIPRRFIYLGDGGGDFCPTLKLRECDFVMPRTNYPLWKKISDNPLLIKAEVKEWSSAEEQQRILLQLVSTITKEEDS and report it.
Result: soluble
